- Tgt: T1, HLA-DR11 (DRB1*1101), purified (human)
- T1 construct: mature
- Experimental Details: competition on purified HLA-DR (DRB1*1101) against biotinylated HA 306-318 (20 nM, pH 5); fluorescence assay
Metric: IC50 (nM)
Answers are plain numbers, in nM.

Task item: For ACYEFLWGPRALVETS [peptide MAGE-3 267-282 (ACYEFLWGPRALVETS)] , what is its reported IC50?
Reply: 150
